- target under test: NCC69 (HA:NCC69) (Drosophila melanogaster, UniProt Q9VTW8)
- Sequence (Q9VTW8 1-1171): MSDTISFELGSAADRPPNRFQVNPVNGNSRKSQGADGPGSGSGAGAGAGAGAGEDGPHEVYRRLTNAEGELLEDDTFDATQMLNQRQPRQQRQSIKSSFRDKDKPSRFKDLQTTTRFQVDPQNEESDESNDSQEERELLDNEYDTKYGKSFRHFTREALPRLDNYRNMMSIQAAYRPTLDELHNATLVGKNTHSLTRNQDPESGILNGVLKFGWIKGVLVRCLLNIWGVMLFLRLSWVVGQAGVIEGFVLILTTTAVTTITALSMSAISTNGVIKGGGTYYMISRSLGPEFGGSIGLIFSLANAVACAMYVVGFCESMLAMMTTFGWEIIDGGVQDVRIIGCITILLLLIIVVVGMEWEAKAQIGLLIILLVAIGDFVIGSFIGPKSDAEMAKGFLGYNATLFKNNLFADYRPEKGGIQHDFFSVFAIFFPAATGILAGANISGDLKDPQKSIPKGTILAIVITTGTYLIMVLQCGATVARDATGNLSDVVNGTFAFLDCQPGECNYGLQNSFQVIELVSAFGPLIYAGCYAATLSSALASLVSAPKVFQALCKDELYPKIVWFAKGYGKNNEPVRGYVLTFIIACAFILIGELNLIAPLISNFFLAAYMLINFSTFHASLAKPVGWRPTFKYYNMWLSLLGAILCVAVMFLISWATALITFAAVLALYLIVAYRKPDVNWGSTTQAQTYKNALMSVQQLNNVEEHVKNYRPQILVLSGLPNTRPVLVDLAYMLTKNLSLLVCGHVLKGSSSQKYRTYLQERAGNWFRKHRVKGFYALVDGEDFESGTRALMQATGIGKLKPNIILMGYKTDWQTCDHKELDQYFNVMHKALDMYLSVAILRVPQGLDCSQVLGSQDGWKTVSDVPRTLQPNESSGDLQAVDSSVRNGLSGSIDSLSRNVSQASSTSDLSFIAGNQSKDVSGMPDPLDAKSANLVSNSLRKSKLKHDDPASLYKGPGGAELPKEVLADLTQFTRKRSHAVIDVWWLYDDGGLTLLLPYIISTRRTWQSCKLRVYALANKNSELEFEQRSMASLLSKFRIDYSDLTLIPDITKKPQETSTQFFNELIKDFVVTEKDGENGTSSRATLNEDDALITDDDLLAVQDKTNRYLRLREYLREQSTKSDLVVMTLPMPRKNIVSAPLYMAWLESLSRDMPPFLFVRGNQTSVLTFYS
- procedure summary: […] influx inhibition in stably transfected SL2 cells
endpoint label: Ki (nM)
Answer with a number only, understood to be in nM.

Answer with the recorded Ki of CCCCNc1cc(C(=O)O)cc(S(N)(=O)=O)c1Oc1ccccc1 [bumetanide] only.
49
